Experiment: Antiproliferative activity against human Kidney epithelial cells assessed as inhibition of cell growth by XTT assay
Assay type: toxicity, cell-based
IC50 for assorted compounds
measurement-kind: IC50

[[record]]
compound = "CN(C)CCCNC(=O)c1csc(NC(=O)c2csc(NC(=O)c3csc(N)n3)n2)n1"
measurement_kind = "IC50"
experimental_value = "> 50 µM"

[[record]]
compound = "CN(C)CCCOc1cc(C(=O)NCc2cn(-c3cccc(NC(=O)C4CCCN4)c3)nn2)cc(C(=O)NCc2cn(-c3cccc(NC(=O)C4CCCN4)c3)nn2)c1 (stereo not drawn)"
measurement_kind = "IC50"
experimental_value = "> 50 µM"

[[record]]
compound = "CN(CCCCn1cc(CCCC(=O)OC[C@H]2O[C@@H](n3cnc4c(=O)[nH]c(N)nc43)[C@@H]3OC(C)(C)O[C@@H]32)nn1)Cc1c2ccccc2c(CN(C)CCCCn2cc(CCCC(=O)OC[C@H]3O[C@@H](n4cnc5c(=O)[nH]c(N)nc54)[C@@H]4OC(C)(C)O[C@@H]43)nn2)c2ccccc12"
measurement_kind = "IC50"
experimental_value = "> 50 µM"


* * *

System: HeLa
Assay: Antiproliferative activity against human HeLa cells assessed as inhibition of cell growth by XTT assay
Type: functional, cell-based
pIC50: −log10 of the molar value.
measurement-kind: pIC50

[[record]]
compound = "CN(C)CCCOc1cc(C(=O)NCc2cn(-c3cccc(NC(=O)C4CCCN4)c3)nn2)cc(C(=O)NCc2cn(-c3cccc(NC(=O)C4CCCN4)c3)nn2)c1 (stereo not drawn)"
measurement_kind = "pIC50"
experimental_value = 5.08

[[record]]
compound = "CN(CCCCn1cc(CCCC(=O)OC[C@H]2O[C@@H](n3cnc4c(=O)[nH]c(N)nc43)[C@@H]3OC(C)(C)O[C@@H]32)nn1)Cc1c2ccccc2c(CN(C)CCCCn2cc(CCCC(=O)OC[C@H]3O[C@@H](n4cnc5c(=O)[nH]c(N)nc54)[C@@H]4OC(C)(C)O[C@@H]43)nn2)c2ccccc12"
measurement_kind = "pIC50"
experimental_value = 5.21

[[record]]
compound = "CN(C)CCCNC(=O)c1csc(NC(=O)c2csc(NC(=O)c3csc(N)n3)n2)n1"
measurement_kind = "pIC50"
experimental_value = 5.42


* * *

Tested on: Quadruplex DNA
Experiment: Binding affinity to c-MYC G-quadruplex DNA (unknown origin) assessed as association constant by fluorescence spectroscopy
Assay type: nucleic-acid assay
// values below are reported Ka
measurement-kind: Ka

[[record]]
structure_string = "Nc1nc(-c2ccccc2)c2c(n1)-c1cc(OCCN3CCCC3)ccc1C2=O"
experimental_value = "1 10^5/M"

[[record]]
structure_string = "CN(C)CCCNC(=O)c1csc(NC(=O)c2csc(NC(=O)c3csc(N)n3)n2)n1"
experimental_value = "4 10^6/M"

[[record]]
structure_string = "Cc1oc2ccc(O)c(CN3CCCCCC3)c2c1C(=O)Nc1ccc(C(F)(F)F)cc1"
experimental_value = "1.06 10^5/M"

[[record]]
structure_string = "C/C(=N/Nc1nc2ccccc2s1)c1ccc(-c2cccc(C(=O)NCCCN(C)C)c2)o1"
experimental_value = "1.3 10^5/M"

[[record]]
structure_string = "CN(CCCCn1cc(CCCC(=O)OC[C@H]2O[C@@H](n3cnc4c(=O)[nH]c(N)nc43)[C@@H]3OC(C)(C)O[C@@H]32)nn1)Cc1c2ccccc2c(CN(C)CCCCn2cc(CCCC(=O)OC[C@H]3O[C@@H](n4cnc5c(=O)[nH]c(N)nc54)[C@@H]4OC(C)(C)O[C@@H]43)nn2)c2ccccc12"
experimental_value = "2.56 10^6/M"

[[record]]
structure_string = "CN(C)CCCNC(=O)c1ccc(-n2cc(-c3ccc4c(c3)c3cc(-c5cn(-c6ccc(C(=O)NCCCN(C)C)cc6)nn5)ccc3n4CCCN(C)C)nn2)cc1"
experimental_value = "3.3 10^6/M"

[[record]]
structure_string = "CN(C)CCCNC(=O)c1ccc(-n2cc(-c3ccc4c(c3)c3ccccc3n4CCCN(C)C)nn2)cc1"
experimental_value = "4.76 10^6/M"


* * *

Test system: Quadruplex DNA
Test: Thermal stabilization of c-MYC G-quadruplex DNA (unknown origin) assessed as change in melting temperature at 1:5 ratio by FRET melting assay
Format: nucleic-acid assay
measurement-kind: ΔTm

[[record]]
compound = "C/C(=N/Nc1nc2ccccc2s1)c1ccc(-c2cccc(C(=O)NCCCN(C)C)c2)o1"
measurement_kind = "ΔTm"
experimental_value = "15.3 °C"

[[record]]
compound = "CN(C)CCCNC(=O)c1csc(NC(=O)c2csc(NC(=O)c3csc(N)n3)n2)n1"
measurement_kind = "ΔTm"
experimental_value = "22 °C"

[[record]]
compound = "CN(CCCCn1cc(CCCC(=O)OC[C@H]2O[C@@H](n3cnc4c(=O)[nH]c(N)nc43)[C@@H]3OC(C)(C)O[C@@H]32)nn1)Cc1c2ccccc2c(CN(C)CCCCn2cc(CCCC(=O)OC[C@H]3O[C@@H](n4cnc5c(=O)[nH]c(N)nc54)[C@@H]4OC(C)(C)O[C@@H]43)nn2)c2ccccc12"
measurement_kind = "ΔTm"
experimental_value = "8.8 °C"

[[record]]
compound = "CN(C)CCCNC(=O)c1ccc(-n2cc(-c3ccc4c(c3)c3ccccc3n4CCCN(C)C)nn2)cc1"
measurement_kind = "ΔTm"
experimental_value = "15.8 °C"

[[record]]
compound = "CN(C)CCCNC(=O)c1ccc(-n2cc(-c3ccc4c(c3)c3cc(-c5cn(-c6ccc(C(=O)NCCCN(C)C)cc6)nn5)ccc3n4CCCN(C)C)nn2)cc1"
measurement_kind = "ΔTm"
experimental_value = "22.7 °C"

[[record]]
compound = "CN(C)CCCOc1cc(C(=O)NCc2cn(-c3cccc(NC(=O)C4CCCN4)c3)nn2)cc(C(=O)NCc2cn(-c3cccc(NC(=O)C4CCCN4)c3)nn2)c1 (configuration not stated)"
measurement_kind = "ΔTm"
experimental_value = "15 °C"

[[record]]
compound = "CN(C)c1cccc2c(S(=O)(=O)N(Cc3cn(C(C)(C)C(=O)OC[C@H]4O[C@@H](n5cnc6c(=O)[nH]c(N)nc65)[C@@H]5OC(C)(C)O[C@@H]54)nn3)Cc3cn(C(C)(C)C(=O)OC[C@H]4O[C@@H](n5cnc6c(=O)[nH]c(N)nc65)[C@@H]5OC(C)(C)O[C@@H]54)nn3)cccc12"
measurement_kind = "ΔTm"
experimental_value = "12.6 °C"


* * *

Tested on: CA46
Experiment: Cytotoxicity against human CA46 cells assessed as reduction in cell viability by MTS assay
Assay type: functional, cell-based
pIC50: −log10 of the molar value.
measurement-kind: pIC50

[[record]]
structure_string = "Cc1c2ccncc2c(C)c2c1[nH]c1ccc(OCCN(C)C)cc12"
experimental_value = 4.89


* * *

Measured pIC50, listed per entry.
Test system: A549
Assay: Antiproliferative activity against human A549 cells assessed as inhibition of cell growth by XTT assay
Assay type: functional, cell-based
pIC50: −log10 of the molar value.
measurement-kind: pIC50

[[record]]
molecule = "CN(C)CCCNC(=O)c1csc(NC(=O)c2csc(NC(=O)c3csc(N)n3)n2)n1"
measurement_kind = "pIC50"
experimental_value = 5.49

[[record]]
molecule = "CN(C)CCCOc1cc(C(=O)NCc2cn(-c3cccc(NC(=O)C4CCCN4)c3)nn2)cc(C(=O)NCc2cn(-c3cccc(NC(=O)C4CCCN4)c3)nn2)c1 (configuration not stated)"
measurement_kind = "pIC50"
experimental_value = 5.04


* * *

System: Quadruplex DNA
Assay: Binding affinity to c-MYC G-quadruplex DNA (unknown origin) assessed as association constant by fluorescence spectroscopy
Format: nucleic-acid assay
Ka by entry:
measurement-kind: Ka

[[record]]
compound = "CN(C)c1cccc2c(S(=O)(=O)N(Cc3cn(C(C)(C)C(=O)OC[C@H]4O[C@@H](n5cnc6c(=O)[nH]c(N)nc65)[C@@H]5OC(C)(C)O[C@@H]54)nn3)Cc3cn(C(C)(C)C(=O)OC[C@H]4O[C@@H](n5cnc6c(=O)[nH]c(N)nc65)[C@@H]5OC(C)(C)O[C@@H]54)nn3)cccc12"
study_system = "Quadruplex DNA"
measurement_kind = "Ka"
experimental_value = "4.8 10^7/M"

[[record]]
compound = "CN(C)CCCOc1cc(C(=O)NCc2cn(-c3cccc(NC(=O)C4CCCN4)c3)nn2)cc(C(=O)NCc2cn(-c3cccc(NC(=O)C4CCCN4)c3)nn2)c1 (stereo not given)"
study_system = "Quadruplex DNA"
measurement_kind = "Ka"
experimental_value = "5.55 10^5/M"

[[record]]
compound = "CC1=CC2(c3cc(C)ccn3)C(=O)C=C(c3ccc4ccccc4c3)N2C=C1 (stereo not given)"
study_system = "Quadruplex DNA"
measurement_kind = "Ka"
experimental_value = "1 10^6/M"

[[record]]
compound = "CN(C)CCCNC(=O)c1ccc(-n2cc(-c3ccc4c(c3)c3ccccc3n4-c3ccc(C(=O)NCCCN(C)C)cc3)nn2)cc1"
study_system = "Quadruplex DNA"
measurement_kind = "Ka"
experimental_value = "5.9 10^6/M"

[[record]]
compound = "C[n+]1cccc(-c2cc3c4cc(-c5ccc[n+](C)c5)c5nc(C(F)(F)C(F)(F)C(F)(F)F)nc6c(-c7ccc[n+](C)c7)cc(c7cc(-c8ccc[n+](C)c8)c8nc(C(F)(F)C(F)(F)C(F)(F)F)nc2c8c37)c4c56)c1"
study_system = "Quadruplex DNA"
measurement_kind = "Ka"
experimental_value = "2.31 10^7/M"

